system tested: human GLP-1R receptor (Homo sapiens, UniProt P43220, L260F)
Sequence (P43220 24-463 L260F): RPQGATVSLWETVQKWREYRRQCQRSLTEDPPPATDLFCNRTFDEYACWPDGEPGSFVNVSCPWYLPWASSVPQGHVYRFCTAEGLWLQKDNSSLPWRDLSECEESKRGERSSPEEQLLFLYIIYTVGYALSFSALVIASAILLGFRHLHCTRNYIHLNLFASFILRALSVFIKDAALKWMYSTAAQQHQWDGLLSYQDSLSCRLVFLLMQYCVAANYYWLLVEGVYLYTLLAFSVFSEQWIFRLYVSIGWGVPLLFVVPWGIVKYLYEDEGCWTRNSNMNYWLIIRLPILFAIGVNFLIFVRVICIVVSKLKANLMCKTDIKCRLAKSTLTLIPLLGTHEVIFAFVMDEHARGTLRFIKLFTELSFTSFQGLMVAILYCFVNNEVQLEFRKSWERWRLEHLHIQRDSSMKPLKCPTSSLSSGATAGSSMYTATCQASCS
assay notes: CHOK1 GLP-1R cAMP Assay
condition summary: CHO-K1 cell line stably expressing human GLP-1R; HTRF cAMP detection
pEC50: −log10 of the molar value.
measured quantity: pEC50

[a] C[C@]1(c2ccc(Cl)cc2F)Oc2cccc(N3CCN(Cc4nc5ccc(C(=O)O)cc5n4CCn4cccn4)[C@H]4COC[C@H]43)c2O1 (single isomer, unassigned) [Example 7b]
[b] C[C@]1(c2ccc(Cl)cc2F)Oc2cccc(N3CCN(Cc4nc5c(F)cc(C(=O)O)cc5n4C[C@@H]4CCO4)[C@H]4COC[C@H]43)c2O1 (single isomer, unassigned) [Example 16d]
# returns the entry with the larger pEC50; inputs a and b # reply format: chosen label b

[I] C[C@]1(c2ccc(Cl)cn2)Oc2cccc(N3CCN(Cc4nc5ccc(C(=O)O)cc5n4C[C@@H]4CCCO4)[C@H]4COC[C@H]43)c2O1 (single isomer, unassigned) [Example 8b]
[II] C[C@]1(c2ccc(Cl)cn2)Oc2cccc(N3CCN(Cc4nc5ccc(C(=O)O)cc5n4C[C@@H]4CCO4)[C@H]4COC[C@H]43)c2O1 (single isomer, unassigned) [Example 5d]
Consider entries I and II . Which has the numerically lower pEC50? # reply format: chosen label I
(I: 6.28, II: 6.48)

[a] C[C@]1(c2ccc(Cl)cc2F)Oc2cccc(N3CCN(Cc4nc5ccc(C(=O)O)cc5n4C[C@@H]4CCO4)[C@H]4COC[C@H]43)c2O1 (single isomer, unassigned) [Example 6a]
[b] C[C@]1(c2ccc(Cl)cc2F)Oc2cccc(N3CCN(Cc4nc5c(Cl)cc(C(=O)O)cc5n4C[C@@H]4CCO4)[C@H]4COC[C@H]43)c2O1 (single isomer, unassigned) [Example 15b]
# returns the entry with the larger pEC50; inputs a and b # reply format: chosen label a

[P] C[C@]1(c2ccc(Cl)cc2F)Oc2cccc(N3CCN(Cc4nc5c(Cl)cc(C(=O)O)cc5n4Cc4cocn4)[C@H]4COC[C@H]43)c2O1 (single isomer, unassigned) [Example 19]
[Q] C[C@]1(c2ccc(Cl)cc2F)Oc2cccc(N3CCN(Cc4nc5c(F)cc(C(=O)O)cc5n4Cc4cccnc4)[C@H]4COC[C@H]43)c2O1 (single isomer, unassigned) [Example 13a]
Consider entries P and Q . Which has the numerically lower pEC50? # reply format: chosen label Q
(Q: 7.26, P: 7.60)

====

system tested: endogenous human glucagon-like peptide 1 receptor (GLP-1R) (Homo sapiens)
Construct: endogenous human glucagon-like peptide 1 receptor (GLP-1R) in a pancreatic insulinoma cell line; host or cells: EndoC-βH1 human pancreatic β cell line
Sequence (P43220 24-463): as the sequence (P43220 24-463 L260F) above, with F237L counted along it
assay notes: EndoC cAMP Accumulation Assay
Type: cell-based
condition summary: EndoC-βH1 human pancreatic β cell line; HTRF cAMP assay
measured quantity: EC50 (µM)

[I] C[C@]1(c2ccc(Cl)cc2F)Oc2cccc(N3CCN(Cc4nc5c(Cl)cc(C(=O)O)cc5n4Cc4cocn4)[C@H]4COC[C@H]43)c2O1 (single isomer, unassigned)
[II] C[C@]1(c2ccc(Cl)cc2F)Oc2cccc(N3CCN(Cc4nc5ccc(C(=O)O)cc5n4C[C@@H]4CCO4)[C@H]4COC[C@H]43)c2O1 (single isomer, unassigned) [Example 6c]
Consider entries I and II . Which has the numerically lower EC50? # reply format: chosen label I
(I: 0.0074 µM, II: 0.15 µM)

[a] C[C@]1(c2ccc(Cl)cn2)Oc2cccc(N3CCN(Cc4nc5c(Cl)cc(C(=O)O)cc5n4C[C@@H]4CCCO4)[C@H]4COC[C@H]43)c2O1 (single isomer, unassigned) [Example 4b]
[b] C[C@]1(c2ccc(Cl)cn2)Oc2cccc(N3CCN(Cc4nc5c(F)cc(C(=O)O)cc5n4CC4(CC#N)CC4)[C@H]4COC[C@H]43)c2O1 (single isomer, unassigned)
[c] C[C@]1(c2ccc(Cl)cc2F)Oc2cccc(N3CCN(Cc4nc5c(F)cc(C(=O)O)cc5n4C[C@@H]4CCO4)[C@H]4COC[C@H]43)c2O1 (single isomer, unassigned) [Example 16b]
[d] C[C@]1(c2ccc(Cl)cc2F)Oc2cccc(N3CCN(Cc4nc5ccc(C(=O)O)cc5n4CCn4cccn4)[C@H]4COC[C@H]43)c2O1 (single isomer, unassigned) [Example 7c]
Put the items in order so that reported EC50 rises from first to last. Dear reader, please state the labels in the requested order. b, a, c, d

====

system tested: human GLP-1R receptor (Homo sapiens, UniProt P43220, L260F)
assay notes: CHOK1 GLP-1R cAMP Assay
condition summary: CHO-K1 cell line stably expressing human GLP-1R; HTRF cAMP detection
pEC50: −log10 of the molar value.
measured quantity: pEC50

[I] C[C@]1(c2ccc(Cl)cn2)Oc2cccc(N3CCN(Cc4nc5c(Cl)cc(C(=O)O)cc5n4C[C@@H]4CCCO4)[C@H]4COC[C@H]43)c2O1 (single isomer, unassigned) [Example 4b]
[II] Cc1nccn1CCn1c(CN2CCN(c3cccc4c3O[C@@](C)(c3ccc(Cl)cc3F)O4)[C@@H]3COC[C@@H]32)nc2c(F)cc(C(=O)O)cc21 (single isomer, unassigned) [Example 17]
[III] C[C@]1(c2ccc(Cl)cc2F)Oc2cccc(N3CCN(Cc4nc5c(F)cc(C(=O)O)cc5n4Cc4cocn4)[C@H]4COC[C@H]43)c2O1 (single isomer, unassigned) [Example 20b]
// ascending sort on recorded pEC50 Dear reader, please state the labels in the requested order. I, II, III

====

system tested: human GLP-1R receptor (Homo sapiens, UniProt P43220, L260F)
assay notes: CHOK1 GLP-1R cAMP Assay
condition summary: CHO-K1 cell line stably expressing human GLP-1R; HTRF cAMP detection
measured quantity: EC50 (nM)

• Cc1nccn1CCn1c(CN2CCN(c3cccc4c3O[C@@](C)(c3ccc(Cl)cc3F)O4)[C@@H]3COC[C@@H]32)nc2c(Cl)cc(C(=O)O)cc21 (single isomer, unassigned) = 26

[1] C[C@]1(c2ccc(Cl)cn2)Oc2cccc(N3CCN(Cc4nc5c(Cl)cc(C(=O)O)cc5n4C[C@@H]4CCO4)[C@H]4COC[C@H]43)c2O1 (single isomer, unassigned) [Example 14b]
[2] C[C@]1(c2ccc(Cl)cn2)Oc2cccc(N3CCN(Cc4nc5c(Cl)cc(C(=O)O)cc5n4CC4(CC#N)CC4)[C@H]4COC[C@H]43)c2O1 (single isomer, unassigned)
Consider entries 1 and 2 . Which has the numerically lower EC50? # reply format: chosen label 2
(2: 3.1 nM, 1: 170 nM)

====

system tested: human phosphodiesterase-3A (Homo sapiens, UniProt Q14432)
Sequence (Q14432 whole entry): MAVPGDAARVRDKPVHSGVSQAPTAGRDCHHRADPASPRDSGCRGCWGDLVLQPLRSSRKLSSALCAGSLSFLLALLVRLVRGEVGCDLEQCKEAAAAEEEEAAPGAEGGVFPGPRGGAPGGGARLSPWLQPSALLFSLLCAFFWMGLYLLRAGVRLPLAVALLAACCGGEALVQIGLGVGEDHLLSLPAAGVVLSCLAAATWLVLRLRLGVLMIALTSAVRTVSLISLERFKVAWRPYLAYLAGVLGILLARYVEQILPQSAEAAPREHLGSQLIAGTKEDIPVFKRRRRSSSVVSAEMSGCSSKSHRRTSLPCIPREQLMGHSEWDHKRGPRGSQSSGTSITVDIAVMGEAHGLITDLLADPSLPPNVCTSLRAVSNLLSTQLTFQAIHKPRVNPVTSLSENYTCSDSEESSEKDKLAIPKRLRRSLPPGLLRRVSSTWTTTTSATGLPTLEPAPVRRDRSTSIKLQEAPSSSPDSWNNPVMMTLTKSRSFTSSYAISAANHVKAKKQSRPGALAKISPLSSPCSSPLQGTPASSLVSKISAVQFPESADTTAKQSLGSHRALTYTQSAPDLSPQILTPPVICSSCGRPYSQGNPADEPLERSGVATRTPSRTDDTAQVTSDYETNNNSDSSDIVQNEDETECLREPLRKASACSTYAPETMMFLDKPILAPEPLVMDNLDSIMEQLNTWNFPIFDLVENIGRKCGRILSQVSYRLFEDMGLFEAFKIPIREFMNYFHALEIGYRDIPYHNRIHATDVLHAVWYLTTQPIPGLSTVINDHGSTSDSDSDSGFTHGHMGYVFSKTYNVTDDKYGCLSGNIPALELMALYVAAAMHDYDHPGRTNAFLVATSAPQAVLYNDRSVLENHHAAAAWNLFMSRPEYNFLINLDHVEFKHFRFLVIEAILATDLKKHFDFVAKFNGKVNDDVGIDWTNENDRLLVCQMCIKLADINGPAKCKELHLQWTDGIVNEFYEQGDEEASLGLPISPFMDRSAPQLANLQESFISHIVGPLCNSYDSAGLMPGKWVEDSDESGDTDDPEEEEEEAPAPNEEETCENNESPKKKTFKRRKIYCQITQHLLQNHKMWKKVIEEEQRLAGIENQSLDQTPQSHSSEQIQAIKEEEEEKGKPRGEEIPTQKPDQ
assay notes: PDE3 Assay
condition summary: human recombinant enzyme expressed in Sf9 cells; formation of 5′AMP from cAMP
measured quantity: IC50

These solved cases illustrate the format of a correct answer.
* C[C@]1(c2ccc(Cl)cn2)Oc2cccc(N3CCN(Cc4nc5ccc(C(=O)O)cc5n4CC4(CC#N)CC4)[C@H]4COC[C@H]43)c2O1 (single isomer, unassigned) | > 100 µM
* N#Cc1ccc(COc2cccc(C3CCN(Cc4nc5ccc(C(=O)O)cc5n4C[C@@H]4CCO4)CC3)n2)c(F)c1 [Ref Comp B, reference compound] | 11 µM
* C[C@]1(c2ccc(Cl)cn2)Oc2cccc(N3CCN(Cc4nc5c(F)cc(C(=O)O)cc5n4CC4(C#N)CC4)[C@H]4COC[C@H]43)c2O1 (single isomer, unassigned) [Example 22a] | > 100 µM
* COc1cc(C(=O)O)cc2c1nc(CN1CCN(c3cccc4c3O[C@@](C)(c3ccc(Cl)cn3)O4)[C@@H]3COC[C@@H]31)n2C[C@@H]1CCO1 (relative stereo) | > 100 µM

Let us move to another entry and its IC50.
Tell me the measured IC50 of C[C@]1(c2ccc(Cl)cn2)Oc2cccc(N3CCN(Cc4nc5c(F)cc(C(=O)O)cc5n4CC4(CC#N)CC4)[C@H]4COC[C@H]43)c2O1 (single isomer, unassigned) , please. > 100 µM

====

system tested: human GLP-1R receptor (Homo sapiens, UniProt P43220, L260F)
Construct: expressed in transfected cells; host or cells: CHO-K1 (ATCC CCL-61)
assay notes: CHOK1 GLP-1R cAMP Assay
Format: cell-based
condition summary: CHO-K1 cell line stably expressing human GLP-1R; HTRF cAMP detection
measured quantity: EC50 (nM)

These solved cases illustrate the format of a correct answer.
- C[C@]1(c2ccc(Cl)cn2)Oc2cccc(N3CCN(Cc4nc5c(Cl)cc(C(=O)O)cc5n4C[C@@H]4CCCO4)[C@H]4COC[C@H]43)c2O1 (single isomer, unassigned) [Example 4a]: 5.1
- C[C@]1(c2ccc(Cl)cc2F)Oc2cccc(N3CCN(Cc4nc5ccc(C(=O)O)cc5n4CCn4cccn4)[C@H]4COC[C@H]43)c2O1 (single isomer, unassigned) [Example 7c]: 110

[I] C[C@]1(c2ccc(Cl)cn2)Oc2cccc(N3CCN(Cc4nc5ccc(C(=O)O)cc5n4CC4(CC#N)CC4)[C@H]4COC[C@H]43)c2O1 (single isomer, unassigned)
[II] C[C@]1(c2ccc(Cl)cn2)Oc2cccc(N3CCN(Cc4nc5c(Cl)cc(C(=O)O)cc5n4C[C@@H]4CCO4)[C@H]4COC[C@H]43)c2O1 (single isomer, unassigned) [Example 14c]
[III] COc1cc(C(=O)O)cc2c1nc(CN1CCN(c3cccc4c3O[C@@](C)(c3ccc(Cl)cn3)O4)[C@@H]3COC[C@@H]31)n2C[C@@H]1CCO1 (relative stereo) [Example 1b]
Put the items in order so that reported EC50 rises from first to last. Dear reader, please state the labels in the requested order. III, I, II
(III: 1.8 nM, I: 5.1 nM, II: 180 nM)
